From: patent US7282203B2

# Test system: OPM2 MM cells
# test: MTT assay, percent of living OPM2 MM cells cultured on fibroblast cells
# Assay type: cell-based
# measurement.parameters: Homo sapiens, OPM-2; DOX in the presence of 40 μg (27 μg/ml) anti-NOTCH EC antibody
metric: IC50 (nM)
Could you give me the number in nM? Just the number is fine.

Data request: IC50 lookup needed for COc1cccc2c1C(=O)c1c(O)c3c(c(O)c1C2=O)C[C@@](O)(C(=O)CO)C[C@@H]3O[C@H]1C[C@H](N)[C@H](O)[C@H](C)O1 , thanks.
Data returned: 100
